# target-system: recombinant human Estrogen Receptor alpha ligand binding domain, residues 307-554 (ER alpha-LBD (GST)) (Homo sapiens)
# Sequence (P03372 307-554): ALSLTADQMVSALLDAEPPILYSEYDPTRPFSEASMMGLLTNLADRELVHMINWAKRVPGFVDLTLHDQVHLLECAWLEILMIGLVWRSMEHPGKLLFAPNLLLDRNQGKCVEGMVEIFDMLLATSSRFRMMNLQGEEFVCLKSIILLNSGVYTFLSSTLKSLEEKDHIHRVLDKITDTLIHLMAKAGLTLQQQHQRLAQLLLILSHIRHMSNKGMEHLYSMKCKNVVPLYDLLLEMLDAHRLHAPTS
# assay-name: ERα binding assay (LanthaScreen TR-FRET competition)
# measurement-parameters: TR-FRET competition with Fluormone ES2 tracer, 4 hours at room temperature; single experiment or average of two or more
pIC50: −log10 of the molar value.

structure-notation	pIC50
Cc1ncsc1-c1ccc(CNC(=O)[C@@H]2C[C@@H](O)CN2C(=O)[C@@H](NC(=O)COCCO[C@H](C)[C@@H](C)OCCOc2cc(F)c([C@@H]3c4[nH]c5ccccc5c4C[C@@H](C)N3CC(C)(C)F)c(F)c2)C(C)(C)C)cc1	9.15
Cc1ncsc1-c1ccc(CNC(=O)[C@@H]2C[C@@H](O)CN2C(=O)[C@@H](NC(=O)CN2CCC3(CC2)CCN(C(=O)COc2cc(F)c([C@@H]4c5[nH]c6ccccc6c5C[C@@H](C)N4CC(C)(C)F)c(F)c2)CC3)C(C)(C)C)cc1	8.89
Cc1ncsc1-c1ccc(CNC(=O)[C@@H]2C[C@@H](O)CN2C(=O)[C@@H](NC(=O)COCCCCCCCOc2ccc([C@@H]3c4[nH]c5ccccc5c4C[C@@H](C)N3CC(F)F)nc2)C(C)(C)C)cc1	8.38
Cc1ncsc1-c1ccc(CNC(=O)[C@@H]2C[C@@H](O)CN2C(=O)[C@@H](NCc2ccc(COc3cc(F)c([C@@H]4c5[nH]c6ccccc6c5C[C@@H](C)N4CC(C)(C)F)c(F)c3)cc2)C(C)(C)C)cc1	9.00
